subject-of-test: T1, IGF1R-Fc (extracellular domain of human IGF1R aa 1-932 fused to hinge and constant regions of human IgG1) (human, UniProt P08069 31-932)
T1 construct: range 1-932; made in house by transient transfection, purified on Protein A; also called IGF-IR-Fc; not shown: hinge and constant regions of human IgG1
pKd: −log10 of the molar value.
attribute-measured: pKd

binder	recorded-value
I1-GS10-E85 pegylated, His-tagged (designed binder, 40 kDa branched PEG on the Cys of the C-terminal Cys tail) MGVSDVPRDLEVVAATPTSLLISWSARLKVARYYRITYGETGGNSPVQEFTVPKNVYTATISGLKPGVDYTITVYAVTRFRDYQPISINYRTEIDKGSGSGSGSGSGSGSGSGSGSVSDVPRDLEVVAATPTSLLISWTQGSTHYQYYRITYGETGGNSPVQEFTVPGMVYTATISGLKPGVDYTITVYAVTDYFDRSTHEYKYRTTPISINYRTEIDKPCQHHHHHH	9.37
